Measured on: AKT1 WT (Homo sapiens (Human))
Sequence (P31749 whole entry): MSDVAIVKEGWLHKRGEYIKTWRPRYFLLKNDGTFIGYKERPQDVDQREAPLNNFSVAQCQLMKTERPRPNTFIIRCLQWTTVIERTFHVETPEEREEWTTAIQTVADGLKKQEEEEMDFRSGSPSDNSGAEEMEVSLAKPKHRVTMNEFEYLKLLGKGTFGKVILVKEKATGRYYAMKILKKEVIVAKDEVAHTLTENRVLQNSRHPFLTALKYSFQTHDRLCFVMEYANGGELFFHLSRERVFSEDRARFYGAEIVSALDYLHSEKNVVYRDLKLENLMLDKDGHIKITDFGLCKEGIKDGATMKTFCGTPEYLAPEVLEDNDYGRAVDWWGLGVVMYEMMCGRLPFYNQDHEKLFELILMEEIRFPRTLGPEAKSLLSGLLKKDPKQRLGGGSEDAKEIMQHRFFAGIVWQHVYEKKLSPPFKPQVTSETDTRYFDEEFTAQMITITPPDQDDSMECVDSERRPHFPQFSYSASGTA
Test method notes: Live cell target engagement (NanoBRET) in HEK293 cells
Format: cell-based
Assay setup: HEK293, 2 hours at 37° C.
pIC50: −log10 of the molar value.
Recorded pIC50, one value per entry.

[
  {
    "Compound": "Nc1ncccc1-c1nc2cccnc2n1-c1ccc(CNCCc2ccc(C=O)c(C(F)F)c2)cc1",
    "pIC50": "6.30 to 7.00"
  },
  {
    "Compound": "Nc1ncccc1-c1nc2ccc(N3CC4CCC(C3)O4)nc2n1-c1ccc(CNC(=O)Cc2ccc(C=O)c(O)c2)cc1",
    "pIC50": "6.30 to 7.00"
  },
  {
    "Compound": "CC(NC(=O)Cc1ccc(C=O)c(O)c1)c1ccc(-n2c(-c3cccnc3N)nc3ccc(-c4ccccc4)nc32)cc1 (centres unmarked)",
    "pIC50": "> 7.00"
  },
  {
    "Compound": "Nc1ncccc1-c1nc2ccc(-c3ccccc3)nc2n1-c1ccc(CNC(=O)C2(c3ccc(C=O)c(O)c3F)CC2)cc1",
    "pIC50": "< 6.30"
  },
  {
    "Compound": "Nc1ncccc1-c1nc2ccc(-c3ccccc3)nc2n1-c1ccc(CNC(=O)C2(c3cnc(C=O)c(O)c3)CC2)cc1",
    "pIC50": "< 6.30"
  },
  {
    "Compound": "CC(NCCc1ccc(C=O)c(O)c1)c1ccc(-n2c(-c3cccnc3N)nc3ccc(-c4ccccc4)nc32)cc1 (centres unmarked)",
    "pIC50": "> 7.00"
  }
]

Next up:
**Query** For the compound Nc1ncccc1-c1nc2ccc(Cl)nc2n1-c1ccc(CNCCc2ccc(C=O)c(O)c2)cc1 , give its measured pIC50 value.
**Result** 6.30 to 7.00

---

Measured on: AKT2 (Homo sapiens (Human), UniProt P31751)
Sequence (P31751 whole entry): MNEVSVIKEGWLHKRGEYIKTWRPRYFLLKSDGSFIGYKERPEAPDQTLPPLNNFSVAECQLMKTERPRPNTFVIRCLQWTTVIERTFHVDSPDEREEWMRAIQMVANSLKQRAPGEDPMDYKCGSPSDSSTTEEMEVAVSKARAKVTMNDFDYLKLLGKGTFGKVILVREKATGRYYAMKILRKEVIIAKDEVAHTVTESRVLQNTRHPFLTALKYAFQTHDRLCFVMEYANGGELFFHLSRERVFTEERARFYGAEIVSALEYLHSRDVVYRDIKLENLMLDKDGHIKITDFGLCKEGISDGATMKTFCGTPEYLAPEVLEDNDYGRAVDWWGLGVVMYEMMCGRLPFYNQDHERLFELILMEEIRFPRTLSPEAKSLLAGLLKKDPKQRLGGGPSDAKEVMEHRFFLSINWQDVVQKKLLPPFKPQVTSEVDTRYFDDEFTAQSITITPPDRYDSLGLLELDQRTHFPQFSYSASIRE
Test method notes: Live cell target engagement (NanoBRET) in HEK293 cells
Type: cell-based
Assay setup: HEK293, 2 hours at 37° C.
compounds and their reported IC50

Record excerpt, results attached:
[
  {
    "Compound": "Nc1ncccc1-c1nc2ccc(-c3ccccc3)nc2n1-c1ccc(CNCCc2ccc(O)c(C=O)c2)cc1 [Compound 135]",
    "IC50": "< 100 nM"
  },
  {
    "Compound": "Nc1ncccc1-c1nc2ccc(-c3ccccc3)nc2n1-c1ccc(CNCCc2ccc(C=O)c(O)c2)cc1 [Compound 133]",
    "IC50": "100 to 500 nM"
  },
  {
    "Compound": "Nc1ncccc1-c1nc2cccnc2n1-c1ccc(CNCCc2ccc(C=O)c(O)c2)cc1 [Compound 114]",
    "IC50": "> 500 nM"
  }
]

Now take the following compound into account.
**Query** Using known records, supply IC50 for CC(C)(C)c1cc(C(=O)NCc2ccc(-n3c(-c4cccnc4N)nc4ccc(-c5ccccc5)nc43)cc2)cc(C=O)c1O [Compound 41]
**Result** > 500 nM

---

Measured on: AKT2 (Homo sapiens (Human))
Test method notes: Live cell target engagement (NanoBRET) in HEK293 cells
Format: cell-based
Assay setup: HEK293, 2 hours at 37° C.
pIC50: −log10 of the molar value.
Catalogue of pIC50 values

These solved cases illustrate the format of a correct answer.
[
  {
    "Compound": "Nc1ncccc1-c1nc2ccc(-c3ccccc3)nc2n1-c1ccc(CNC(=O)Cc2ccc(C=O)c(O)n2)cc1 [Compound 75]",
    "pIC50": "< 6.30"
  },
  {
    "Compound": "Nc1ncccc1-c1nc2ccc(-c3ccccc3)nc2n1-c1ccc(CNC(=O)CCc2ccc(C=O)c(O)c2)cc1 [Compound 117]",
    "pIC50": "6.30 to 7.00"
  },
  {
    "Compound": "Nc1ncccc1-c1nc2ccc(-c3ccncc3)nc2n1-c1ccc(CNCCc2ccc(C=O)c(O)c2)cc1 [Compound 119]",
    "pIC50": "< 6.30"
  },
  {
    "Compound": "Nc1ncccc1-c1nc2ccc(-c3ccccc3)nc2n1-c1ccc(CNCCc2ccc(C=O)c(O)c2Cl)cc1 [Compound 120]",
    "pIC50": "6.30 to 7.00"
  },
  {
    "Compound": "Cc1ccc2nc(-c3cccnc3N)n(-c3ccc(CNC(=O)Cc4ccc(C=O)c(O)c4)cc3)c2n1 [Compound 24]",
    "pIC50": "< 6.30"
  }
]

**Query** Report pIC50, nothing else, for this compound: Nc1ncccc1-c1nc2ccc(-c3ccccc3)nc2n1-c1ccc(CC(=O)NC2(c3ccc(C=O)c(O)c3)CC2)cc1 [Example 11]
**Result** 6.30 to 7.00

**Query** Identify measured pIC50 associated with Nc1ncccc1-c1nc2ccc(-c3cccc(N4CCOCC4)c3)nc2n1-c1ccc(CNCCc2ccc(C=O)c(O)c2)cc1 [Compound 108]
**Result** > 7.00
